Origin of measurements: paper PMC7694037

Test system: L. infantum promastigotes
PROCEDURE TEXT: Antileishmanial activity against L. infantum promastigotes (MTT assay)
RUN PARAMETERS: ratio between IC50 of miltefosine and that of each compound, L. infantum promastigotes
ASSAY READOUT: Ratio IC50 Miltef./IC50 Compd. (L. infantum)

# MOLECULE, NUMERIC READOUT
rows = [
    ("COc1ccc2sc3c([N+](=O)[O-])ccc(NCC4CCCN5CCCCC45)c3c(=O)c2c1 (centres unmarked)", 2.4),
    ("C[N+]12CCCC[C@@H]1[C@H](C=C1c3ccccc3-c3ccccc31)CCC2 (some centres unmarked)", 1.90),
    ("O=c1c2ccccc2sc2c([N+](=O)[O-])ccc(NCC3CCCN4CCCCC34)c12 (centres unmarked)", 0.8),
    ("Nc1ccc(NCCC2CCCN3CCCCC23)c2c(=O)c3ccccc3sc12 (centres unmarked)", 8.6),
    ("Cc1ccc(NC[C@@H]2CCC[N+]3(C)CCCC[C@H]23)c2c(=O)c3ccccc3sc12.[I-] (some centres unmarked)", 2.4),
    ("CCCCCCCCCCCCCCCCOP(=O)([O-])OCC[N+](C)(C)C [Miltefosine, reference compound]", 1.0),
    ("O=c1c2ccccc2sc2c([N+](=O)[O-])ccc(NCCC3CCCN4CCCCC34)c12 (centres unmarked)", 3.3),
    ("COc1ccc2sc3c(C)ccc(NCCCC4CCCN5CCCCC45)c3c(=O)c2c1 (centres unmarked)", 1.6),
]
